src = the supplement of paper PMC9170038

- Tested on: K4 kissing-loop RNA reporter;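 also: bound reporter read as fluorescence of individual clusters on recovered sequencing chips by microscopy, with normalized cluster intensities fitted with a binding model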
- Assay text: apparent KD of K4 kissing-loop reporter; higher = weaker reporter binding
- Condition context: Eterna round: R107; input ligand: none
Property name: apparent KD of K4 kissing-loop reporter (nM)
Give bare numbers, in nM.

Chain sequence	Endpoint unit	apparent KD of K4 kissing-loop reporter
UGGACAUGACUCGAUAAGAGUCAAUGAGAUACCAGUGACGAAAGUCACCCUUGGCAGCUCAACUGCCAGUGAUGUUGGUAGUCCU [#SwitchBubble #StaticStem]	nM	742

# map each sequence to its apparent KD of K4 kissing-loop reporter
1. GGGUUUGCCGGAAGGAGCGCACUAUGGAGUGAUGUUCCAUGACCGCACAGCUUGCGGUCAGUGCAGGUAGGUCGCCGGUAGCGUU [Maedzaus]
2. GCCGUACGCAUGGAUACCAGAGAUGUUAAUCUCGAUGCCAGUGAUGUUGGCUUUAGCUAUCUCCCUUGGCAGCCAUGCGUACGGC
3. UACAUUUUAUUAACACUAAAUACAACUGAAGGAGCGACAAUAAAGUCAGGUAGGUCGCAGAAUAAAUGAGUGAUGUUCAUUAUUG [JR_ExcArginiA_Sub016]

Result:
[239, 909, 63.8]

Could I get apparent KD of K4 kissing-loop reporter for every one of these entries?
1. UGAUCUCGGCAGUGAUGUUGCAUAUGAGAAGGAGCGCACGAAAGUGCAGGUAGGUCGCUCAGCCACGACGAAAGUCGCGAGAUCU [#SwitchBubble 3 #K4Early]
2. AACCUUGUAGUGAUGUUGCAAGGCGCUGAUACCAGUCACAGCCACGACCCUUGGCAGCAGUGGCGUUCAUGAUAAAAUAGAUUAA [theeternabot_sameState_KL_Theo_A_49]

Result:
1. 155
2. 41.4
